Provide the recorded total protein half-life in vivo for the entries that follow.
Test: total protein half-life in vivo (active degradation + dilution); higher = more stable protein
Settings: wild type E. coli NCM3722; growth: P-lim chemostat; doubling time 12 h
Return type: number; implicit unit h.

Exam item: Return value of total protein half-life in vivo for input MRRFFWLVAAALLLAGCAGEKGIVEKEGYQLDTRRQAQAAYPRIKVLVIHYTADDFDSSLATLTDKQVSSHYLVPAVPPRYNGKPRIWQLVPEQELAWHAGISAWRGATRLNDTSIGIELENRGWQKSAGVKYFAPFEPAQIQALIPLAKDIIARYHIKPENVVAHADIAPQRKDDPGPLFPWQQLAQQGIGAWPDAQRVNFYLAGRAPHTPVDTASLLELLARYGYDVKPDMTPREQRRVIMAFQMHFRPTLYNGEADAETQAIAEALLEKYGQD , no commentary.
Marked response: 13.9

Exam item: Report total protein half-life in vivo, nothing else, for this sequence: MNYSLKQLKVFVTVAQEKSFSRAGERIGLSQSAVSHSVKELENHTGVRLLDRTTREVVLTDAGQQLALRLERLLDELNSTLRDTGRMGQQLSGKVRVAASQTISAHLIPQCIAESHRRYPDIQFVLHDRPQQWVMESIRQGDVDFGIVIDPGPVGDLQCEAILSEPFFLLCHRDSALAVEDYVPWQALQGAKLVLQDYASGSRPLIDAALARNGIQANIVQEIGHPATLFPMVAAGIGISILPALALPLPEGSPLVVKRITPVVERQLMLVRRKNRSLSTAAEALWDVVRDQGNALMAGREGDPLYQI [P0ACR7]
Marked response: 6.14

Exam item: Tell me total protein half-life in vivo reported for MKTETPSVKIVAITADEAGQRIDNFLRTQLKGVPKSMIYRILRKGEVRVNKKRIKPEYKLEAGDEVRIPPVRVAEREEEAVSPHLQKVAALADVILYEDDHILVLNKPSGTAVHGGSGLSFGVIEGLRALRPEARFLELVHRLDRDTSGVLLVAKKRSALRSLHEQLREKGMQKDYLALVRGQWQSHVKSVQAPLLKNILQSGERIVRVSQEGKPSETRFKVEERYAFATLVRCSPVTGRTHQIRVHTQYAGHPIAFDDRYGDREFDRQLTEAGTGLNRLFLHAAALKFTHPGTGEVMRIEAPMDEGLKRCLQKLRNAR [P0AA39]
Marked response: 11.6

Exam item: Please indicate total protein half-life in vivo recorded for MSDKFGEGRDPYLYPGLDIMRNRLNIRQQQRLEQAAYEMTALRAATIELGPLVRGLPHLRTIHRQLYQDIFDWAGQLREVDIYQGDTPFCHFAYIEKEGNALMQDLEEEGYLVGLEKAKFVERLAHYYCEINVLHPFRVGSGLAQRIFFEQLAIHAGYQLSWQGIEKEAWNQANQSGAMGDLTALQMIFSKVVSEAGESE
Marked response: 7.72

Exam item: Return reported total protein half-life in vivo. Input sequence: MQLNITGNNVEITEALREFVTAKFAKLEQYFDRINQVYVVLKVEKVTHTSDATLHVNGGEIHASAEGQDMYAAIDGLIDKLARQLTKHKDKLKQH [P0AFX0]
Marked response: 7.16

Exam item: State its total protein half-life in vivo for this sequence: MDSFPAIEIDKVKAWDFRLANINTSECLNVAYGVDANYLDGVGVSITSIVLNNRHINLDFYIIADVYNDGFFQKIAKLAEQNQLRITLYRINTDKLQCLPCTQVWSRAMYFRLFAFQLLGLTLDRLLYLDADVVCKGDISQLLHLGLNGAVAAVVKDVEPMQEKAVSRLSDPELLGQYFNSGVVYLDLKKWADAKLTEKALSILMSKDNVYKYPDQDVMNVLLKGMTLFLPREYNTIYTIKSELKDKTHQNYKKLITESTLLIHYTGATKPWHKWAIYPSVKYYKIALENSPWKDDSPRDAKSIIEFKKRYKHLLVQHHYISGIIAGVCYLCRKYYRK
Marked response: 9.86

Origin of values: the supplement of paper PMC11246515
